# ASSAY_SYSTEM: BACE1 enzyme (soluble, truncated BACE enzyme, BACE1deltaTM96His) (Homo sapiens)
# Construct: soluble, truncated BACE enzyme (BACE1deltaTM96His); His; made in house
# Sequence (P56817 46-457): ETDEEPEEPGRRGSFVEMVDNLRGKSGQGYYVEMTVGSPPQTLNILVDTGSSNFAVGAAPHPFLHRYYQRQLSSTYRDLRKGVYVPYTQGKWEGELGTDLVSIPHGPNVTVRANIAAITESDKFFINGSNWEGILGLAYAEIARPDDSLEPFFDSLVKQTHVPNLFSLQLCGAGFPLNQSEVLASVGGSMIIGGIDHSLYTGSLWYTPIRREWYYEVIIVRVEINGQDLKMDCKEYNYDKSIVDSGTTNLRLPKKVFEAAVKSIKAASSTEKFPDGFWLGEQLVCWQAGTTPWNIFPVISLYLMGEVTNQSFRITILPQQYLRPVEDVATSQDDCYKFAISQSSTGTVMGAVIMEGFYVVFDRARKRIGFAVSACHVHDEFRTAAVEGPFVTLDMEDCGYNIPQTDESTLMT
# TEST_PROTOCOL: BACE1 Fluorescent Polarization (FP) Assay
# Assay type: biochemical
# CONDITIONS_USED: 11-point curve; geometric mean of 2-4 IC50 determinations unless footnoted (^2: 5-6 determinations; ^4: single determination); read-out: BACE activity, 11-point curve, IC50
Where a name gives a salt, the structure may show the parent alone.
MEASURED_ENDPOINT: pIC50
Give only the number. pIC50 is defined as minus log10 of concentration in molar units.

Solved cases below.
C[C@H]1C[C@@]2(C=CS(=O)(=O)N2c2cccc(F)c2)CCN1Cc1ncoc1-c1cncc(F)c1 [Example 40, hydrochloride salt]
5.62
C[C@H]1C[C@@]2(C=CS(=O)(=O)N2c2cccc(F)c2)CCN1Cc1scnc1-c1cccnc1
5.04
CC(C)Oc1cc(CN2CC[C@]3(C=CS(=O)(=O)N3c3ccc(F)c(F)c3)C[C@@H]2C)ccc1O
6.37
Cc1ccncc1-c1ncsc1CN1CC[C@]2(C=CS(=O)(=O)N2c2cccc(F)c2)C[C@@H]1C [Example 50, hydrochloride salt]
4.59
Cc1scnc1-c1cc(CN2CC[C@]3(C=CS(=O)(=O)N3c3cccc(F)c3)C[C@@H]2C)ccc1O
7.35
Cc1cncc(-c2ncsc2CN2CC[C@]3(C=CS(=O)(=O)N3c3cccc(F)c3)C[C@@H]2C)c1 [Example 49, hydrochloride salt]
4.82

// below: pIC50 requested for another compound
Kindly state the measured pIC50 obtained for CC(C)Oc1cc(CN2CC[C@]3(C=CS(=O)(=O)N3c3cccc(F)c3)C[C@@H]2C)ccc1O with BACE1 enzyme (soluble, truncated BACE enzyme, BACE1deltaTM96His) (Homo sapiens).
7.11

meta.source: patent US20130150376A1
